B1: PhoQ; a variant is named by its letters at X, in order, P23837 (parent)
chain: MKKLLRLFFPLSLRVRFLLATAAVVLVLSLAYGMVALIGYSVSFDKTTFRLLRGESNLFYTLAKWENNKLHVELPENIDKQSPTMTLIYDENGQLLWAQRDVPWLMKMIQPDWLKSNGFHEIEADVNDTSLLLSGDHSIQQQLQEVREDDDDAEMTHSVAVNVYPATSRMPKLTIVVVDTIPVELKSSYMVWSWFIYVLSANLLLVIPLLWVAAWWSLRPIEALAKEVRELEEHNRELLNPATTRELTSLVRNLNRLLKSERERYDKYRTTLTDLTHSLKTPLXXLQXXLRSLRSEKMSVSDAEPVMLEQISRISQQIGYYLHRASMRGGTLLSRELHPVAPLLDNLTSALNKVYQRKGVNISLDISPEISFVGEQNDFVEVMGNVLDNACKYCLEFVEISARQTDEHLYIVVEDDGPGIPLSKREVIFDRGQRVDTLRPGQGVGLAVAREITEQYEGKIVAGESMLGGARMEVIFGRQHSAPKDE

# Variants of: B1
# Assay procedure: enrichment ratio after two sorts for PhoP signalling (ratio (wild type AVST 3.29)); higher = more functional
# Measurement setup: with PhoP (E. coli)
In all, about 140,000 sequences were measured (“enrichment ratio after two sorts for PhoP signalling”: median about 0, highest 2% from about 11 on). The sample as a whole holds a higher share of the highest values than the screen did.
Reported endpoint: enrichment ratio

WITI = ≤ 0.25
IYSH = ≤ 0.25
WMTR = ≤ 0.25
FDCT = ≤ 0.25
KSDP = ≤ 0.25
KKCT = ≤ 0.25
RLMY = ≤ 0.25
QRAT = ≤ 0.25
KRCT = ≤ 0.25
YMEP = ≤ 0.25
